Below is a list of entries, each paired with its recorded GI50 value.
Test system: MDA-MB-231 breast
Test: NCI tumour cell line growth inhibition, 48 h

CCOC(=O)Nc1cc2c(c(N)n1)N=C(c1ccc(OC)cc1)CN2 | 3.86 nM

Record C#CC1(O)C(COP(=O)(O)OCC(COP(=O)(O)OCC2OC(n3cc(F)c(=O)[nH]c3=O)CC2O)OCCCCCCCCCCCCCCCCCC)OC(n2ccc(N)nc2=O)C1O (stereo unspecified) / MDA-MB-231 breast, GI50 recorded as 320 nM

Entry O=C1C=CC(=O)C2C1C1(Cl)C(Cl)=C(Cl)C2(Cl)C1(Cl)Cl (stereo unspecified) ; assay system MDA-MB-231 breast; GI50 recorded at 3620 nM

Lab entry: MDA-MB-231 breast assay, compound `COC(=O)c1ccc2[nH]c(O)c(C(=Nc3ccc(N(C)C(=O)CN4CCN(C)CC4)cc3)c3ccc4c(c3)OCO4)c2c1` , GI50 = 1080 nM

`Cc1cn(-c2cc(NC(=O)c3cccc(C#Cc4cccc5[nH]nc(N)c45)c3)cc(C(F)(F)F)c2)cn1` on MDA-MB-231 breast gives GI50 = 2350 nM

Entry `COc1cc(Nc2ncccc2C(=O)Nc2nc3ccc(F)cc3s2)cc(OC)c1OC` , tested on MDA-MB-231 breast, has a reported GI50 of 4610 nM

---

Test system: HCT-116 colon
Experiment: NCI tumour cell line growth inhibition, 48 h; in the data active = GI50 below about 0.43 µM; inactive = the rest
Classes to choose from: T for active, F for inactive

// known answers, use as guide
Cn1c(Cl)c(/C=C2/C(=O)Nc3ccccc32)c2ccccc21 | T
Nc1ncc(-c2cnn(C3CCNCC3)c2)cc1-c1nc2cc(Cl)ccc2o1 | F
CCOC(=O)[CH-]C(=O)C12CC3CC(CC(C3)C1)C2.CCOC(=O)[CH-]C(=O)C12CC3CC(CC(C3)C1)C2.CC[O-].CC[O-].[Ti+4] | F
Nc1n[nH]c2cccc(C#Cc3cccc(NC(=O)c4cccc(C(F)(F)F)c4)c3)c12 | F

**Q:** Status in this test for `CCOc1cc(C(C)(C)C)ccc1C1=N[C@H](c2ccc(Cl)cc2)[C@H](c2ccc(Cl)cc2)N1C(=O)N1CCN(CC#Cc2cccc3c2CN([C@@H]2CCC(=O)NC2=O)C3=O)CC1` ?
**A:** F

**Q:** Dear colleague, could you share the recorded outcome for `Cc1nnc(-c2ccc(C)c(-c3ccc(C(=O)Nc4cccc(C#N)c4)cc3)c2)o1` when you have a moment?
**A:** F

**Q:** Outcome logged for `O=C(Oc1ccc[nH]c1=O)c1cc([N+](=O)[O-])cc([N+](=O)[O-])c1` in this assay:
**A:** F

**Q:** Tell me the recorded outcome of this test for `CC(C)CNc1nc(-c2ccccc2Cl)nc2ccccc12` .
**A:** F

---

Test system: SK-MEL-5 melanoma
Assay: NCI tumour cell line growth inhibition, 48 h
This section presents compounds with their documented TGI values.

CCOc1cc(C(C)(C)C)ccc1C1=N[C@H](c2ccc(Cl)cc2)[C@H](c2ccc(Cl)cc2)N1C(=O)N1CCN(CC#Cc2cccc3c2CN([C@@H]2CCC(=O)NC2=O)C3=O)CC1 | 2.2 µM
N/N=C\c1c2ccccc2c(=O)n2c1oc1ccccc12 | 8.34 µM
CSc1c(C(=O)Nc2ccccc2)c(N)n(N)c(=O)c1C#N | > 100 µM
COCCOC(=O)C1=C(O)c2ccccc2S(=O)(=O)N1C | > 100 µM
Cc1cn(C2CC(OC(=O)c3ccc(Cl)cc3)C(COC(=O)c3ccc(Cl)cc3)O2)c(=O)[nH]c1=O (configuration not stated) | > 100 µM
CC(C)(C)C1=C(Br)C(C(C)(C)C)OP1(=O)O (configuration not stated) | > 100 µM
N#Cc1ccc(-c2nc3c(N)ncnc3o2)cc1 | > 100 µM
C=C(C)C1CCC(C(=O)O)CC1 (configuration not stated) | > 100 µM

Kindly note the recorded TGI for `C[C@@H](C(=O)O)N1C(c2ccco2)=C(/C(C=O)=C\c2ccco2)C(=O)/C1=C\c1ccco1` , which is > 100 µM

Form field TGI, entry `O=C(O)c1ccc(CN2CCC(CN[C@@H]3C[C@H]3c3ccccc3)CC2)cc1` : > 100 µM
